These measurements were taken from a melting point compilation (Tetko et al.; mined from patent text by program, amines drawn as free bases though some values may be those of a salt).

value-type: melting point

Sample answers from the record:
>>> measurement("c1ccc(CN2CCC3(CC2)OCCCO3)cc1")
"< 50 °C"
>>> measurement("C=C1CCC2C3CCc4cc(OC)ccc4C3CCC12C (stereo not drawn)")
"59 to 62 °C"

// switching to the query molecule
Looking up COCCOCCN1C(=O)C2(COc3cc4c(cc32)OCCO4)c2ccccc21 (stereo not drawn) , I see its melting point listed as 90 to 91 °C

* * *

Please go through the items and note down their melting point.

Sample answers from the record:
>>> measurement("CCCCCCCCc1ccc(C=CCO)cc1")
"30 °C"
>>> measurement("Cn1cnc2ccc(-c3nnc(CCc4cccc(F)c4)o3)cc21")
"145 to 146 °C"
>>> measurement("O=C1CC=C(c2ccc(F)cc2)CC1")
"44.5 to 46.5 °C"

Return reported melting point values for all items listed beneath this line.
1. CCOC(=O)c1cn2c3c(c(F)c(F)cc3c1=O)OCC2COC (centres undefined)
2. CCOC(=O)c1cccc2c1c1c(C)ccc(C)c1n2S(=O)(=O)c1ccc(C)cc1
3. C[C@](Cc1c[nH]c2ccccc12)(NC(=O)O)C(=O)NCCC1CCCCC1
4. COc1cc(C2c3cc4c(cc3C(N)C3COC(=O)C23)OCO4)cc(OC)c1O[Si](C)(C)C(C)(C)C (centres undefined)
5. Cc1ccc(C(=NO)C(F)(F)F)cc1
6. CCN(CC)CCOc1ccc(Nc2ncc3c(n2)N(C)C(=O)N(c2ccc(Cl)cc2Cl)C3)cc1
7. Clc1ccc(C2OC(c3ccncc3)=Nc3ccc(Cl)cc32)cc1 (centres undefined)
8. CCOc1ccc(C=CC(=O)c2c(O)cc(OC)cc2OC)cc1

Data returned:
1: 238 °C; 2: 149 °C; 3: 79 to 81 °C; 4: 236 to 238 °C; 5: 54 to 68 °C; 6: 172 °C; 7: 140 to 141 °C; 8: 136 °C

Return reported melting point values for all items listed beneath this line.
1. CC(C)c1ccc2c(c1)C(=O)c1ccccc1C2=O
2. Cc1cnc(N)cc1C(c1cc(F)ccc1F)S(=O)(=O)c1ccc(Cl)cc1 (centres undefined)
3. N#Cc1ccc2c(c1)Sc1ccc(N)cc1C=C2
4. Nc1ncnc2c1ncn2OCCOCP(=O)(O)O

Data returned:
53 to 54 °C
188 to 189 °C
181 to 183 °C
241 to 244 °C

Return reported melting point values for all items listed beneath this line.
1. COCSc1nccn1-c1cccc(C2=Nc3ccc(-c4ccccc4F)cc3NC(=O)C2)c1
2. C=CCOC(=O)c1ccc(-c2ccc3cc(C(=O)OCC)c(C45CC6CC(CC(C6)C4)C5)cc3c2OCCCCC)cc1
3. CC(Cl)(Cl)C(NC(=O)c1ccc(Cl)cc1)NC(=NC#N)Nc1cccnc1 (centres undefined)
4. CCOC(=O)c1cn2c(nc1=O)CCC2

Data returned:
["189 to 190 °C", "116 to 117 °C", "185 to 187 °C", "59 to 60 °C"]
